Recorded pIC50 by entry
TESTED_SYSTEM: human MRGPRD (Homo sapiens)
Sequence (Q8TDS7 whole entry): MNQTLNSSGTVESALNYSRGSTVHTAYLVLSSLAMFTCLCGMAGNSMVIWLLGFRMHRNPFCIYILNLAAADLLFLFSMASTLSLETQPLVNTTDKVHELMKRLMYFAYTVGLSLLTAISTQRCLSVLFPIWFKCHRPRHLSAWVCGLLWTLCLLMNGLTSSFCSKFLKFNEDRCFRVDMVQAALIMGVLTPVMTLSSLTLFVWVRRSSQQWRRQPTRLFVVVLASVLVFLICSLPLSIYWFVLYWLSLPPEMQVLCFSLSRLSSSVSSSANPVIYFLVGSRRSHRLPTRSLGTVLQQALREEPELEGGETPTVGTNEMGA
EXPERIMENT_DESCRIPTION: MRGPRD antagonist activity, IP-One HTRF assay in CHO cells stably expressing human MRGPRD (versus 100 μM β-Alanine agonist)
pIC50: −log10 of the molar value.

// below: answered compounds
| COMPOUND | pIC50 |
| --- | --- |
| CCc1ccc(-c2nc([C@@H]3CCCN(C(=O)Nc4ccc(N(C)C)cc4)C3)n3ccccc23)cc1 [Compound 10-29] | 6.00 to 6.30 |
| COc1ccc(NC(=O)N2CCCC(c3nc(-c4cccc(OC)c4)c4ccccn34)C2)cc1 (stereo not shown) [Compound 3-19] | 6.30 to 7.00 |
| COc1cccc(-c2nc(C3CCCN(C(=O)c4ccccc4OC)C3)n3c(OC)cccc23)c1 (stereo not shown) [Compound 14-1] | 6.00 to 6.30 |

*Q* // returns reported pIC50 for input COc1cccc(-c2nc([C@@H]3CCCN(C(=O)NC4CC(C)C4)C3)n3ccccc23)c1 (stereo partly shown) [Compound 5-71]
*A* > 7.00

*Q* // returns reported pIC50 for input COc1cccc(-c2nc([C@@H]3CCCN(C(=O)Nc4cccc(C(=O)N(C)C)c4)C3)n3ccccc23)c1 [Compound 5-18]
*A* > 7.00

*Q* // returns reported pIC50 for input CN(C)c1ccc(NC(=O)N2CCC[C@@H](c3nc(C4=CCCCC4)c4ccccn34)C2)cc1 [Compound 10-44]
*A* 6.30 to 7.00

*Q* // returns reported pIC50 for input COc1cccc(-c2nc(C3CCCN(S(=O)(=O)Cc4cccc(F)c4)C3)n3ccccc23)c1 (stereo not shown) [Compound 16-4]
*A* 6.30 to 7.00
